# pIC50 listing for each entry below
Test system: CAKI-1
Assay: NCI-60 cytotoxicity, CAKI-1
Type: cell-based, human
Details: CAKI-1 (Renal), 72 h
pIC50: −log10 of the molar value.

O=C1NCCc2[nH]c(-c3ccncc3)cc21 [Compound A11] : < 5.00

With those in mind, consider the next molecule.
// query Indicate its recorded pIC50; the molecule in question is O=C1NC(=NCc2cccs2)S/C1=C\c1ccc2ncccc2c1 [Compound A10]
// result < 5.00

* * *

Tested on: SNB-19
Assay: NCI-60 cytotoxicity, SNB-19
Assay type: cell-based, human
Settings: SNB-19 (CNS), 72 h
measurement.type: IC50

O=C1NCCc2[nH]c(-c3ccncc3)cc21 [Compound A11] : > 10 µM

With those in mind, consider the next compound.
// query Indicate its recorded IC50; the compound in question is O=C1NC(=NCc2cccs2)S/C1=C\c1ccc2ncccc2c1 [Compound A10]
// result > 10 µM

* * *

Tested on: RXF 393
Assay: NCI-60 cytotoxicity, RXF 393
Assay type: cell-based, human
Settings: RXF 393 (Renal), 72 h
Experimental: Briefly, human NCI-60 cancer cell lines were counted with a Vi-CELL Cell Viability Analyzer (Beckman Coulter), resuspended in RPMI-1640 medium containing 10% FBS and 1% penicillin/streptomycin and dispensed in wells of 96-well microplates (3000 cells per well for solid tumor and 5000 per well for blood tumor cells) using an epMotion 5075 liquid handler (Eppendorf) under a sterile condition, followed by incubation overnight at 37° C. in 5% (v/v) CO2. […]
measurement.type: pIC50
Lab note — pIC50 values are minus log10 of concentrations in M.

// query Report measured pIC50 on RXF 393; entry: O=C1NCCc2[nH]c(-c3ccncc3)cc21 [Compound A11]
// result 5.46

* * *

Test system: SF-268
Test: NCI-60 cytotoxicity, SF-268
Assay type: cell-based, human
Conditions: Homo sapiens; SF-268 (CNS), 72 h
measurement.type: IC50 (nM)
API: value field is a number in nM; no unit string.

// query Indicate its recorded IC50; the compound in question is Cc1ccc([N+](=O)[O-])cc1S(=O)(=O)N(C)/N=C/c1cnc2ccc(Br)cn12 [Compound 1]
// result 2230

* * *

Test system: 786-0
Assay: NCI-60 cytotoxicity, 786-0
Format: cell-based, human
Details: Homo sapiens; 786-0 (Renal), 72 h
measurement.type: pIC50
Lab note — pIC50 values are minus log10 of concentrations in M.

// query Indicate its recorded pIC50; the molecule in question is Cc1ccc([N+](=O)[O-])cc1S(=O)(=O)N(C)/N=C/c1cnc2ccc(Br)cn12
// result 8.10

* * *

Test system: K-562
Assay: NCI-60 cytotoxicity, K-562
Assay type: cell-based, human
Settings: K-562 (CML), 72 h
pIC50: −log10 of the molar value.
# pIC50 listing for each entry below

O=C1NCCc2[nH]c(-c3ccncc3)cc21 [Compound A11] : < 5.00

With those in mind, consider the next compound.
// query Indicate its recorded pIC50; the compound in question is O=C1NC(=NCc2cccs2)S/C1=C\c1ccc2ncccc2c1 [Compound A10]
// result < 5.00

* * *

Test system: OVCAR-3
Assay: NCI-60 cytotoxicity, OVCAR-3
Assay type: cell-based, human
Details: Homo sapiens; OVCAR-3 (Ovarian), 72 h
measurement.type: pIC50
Lab note — pIC50 values are minus log10 of concentrations in M.

// query Indicate its recorded pIC50; the compound in question is Cc1ccc([N+](=O)[O-])cc1S(=O)(=O)N(C)/N=C/c1cnc2ccc(Br)cn12
// result 7.15
